Conditions: in isopropanol, 318.2 K
Measured Metric: solubility (mole fraction)

Quote solubility (mole fraction) reported for O=c1cc(-c2ccccc2)oc2cc(O)cc(O)c12 please.
0.00121

###

Conditions: in methanol, 308.2 K
Measured Metric: solubility (mole fraction)
Numbers only.

Provide one value: measured solubility (mole fraction) of O=c1cc(-c2ccccc2)oc2cc(O)cc(O)c12
0.000324

###

Conditions: in n-hexane, 313.2 K
Measured Metric: solubility (mole fraction)
One number for each entry.

Report measured solubility (mole fraction); entry is O=c1cc(-c2ccccc2)oc2cc(O)cc(O)c12
6.78e-07

###

Details: in ethanol, 303.2 K
Measured Metric: solubility (mole fraction)
Numbers only.

Please supply the value of reported solubility (mole fraction) for the item O=c1cc(-c2ccccc2)oc2cc(O)cc(O)c12
0.000637

###

Details: in acetone, 318.2 K
Measured Metric: solubility (mole fraction)
Answers are plain numbers.

For the molecule O=c1cc(-c2ccccc2)oc2cc(O)cc(O)c12 , give its measured solubility (mole fraction) value.
0.00226

###

Settings: in isopropanol, 323.2 K
Measured Metric: solubility (mole fraction)
Answers are plain numbers.

# return recorded solubility (mole fraction) for input O=c1cc(-c2ccccc2)oc2cc(O)cc(O)c12
0.0014

###

Conditions: in isopropanol, 328.2 K
Measured Metric: solubility (mole fraction)
One number for each entry.

Tell me measured solubility (mole fraction) for O=c1cc(-c2ccccc2)oc2cc(O)cc(O)c12 please.
0.00185

###

Settings: in water, 323.2 K
Measured Metric: solubility (mole fraction)
Answers are plain numbers.

For the compound O=c1cc(-c2ccccc2)oc2cc(O)cc(O)c12 , give its measured solubility (mole fraction) value.
8.41e-08

###

Conditions: in methanol, 298.2 K
Measured Metric: solubility (mole fraction)
Numbers only.

Supply measured solubility (mole fraction) of O=c1cc(-c2ccccc2)oc2cc(O)cc(O)c12 in your reply.
0.000238

###

Settings: in acetone, 303.2 K
Measured Metric: solubility (mole fraction)

Fill in solubility (mole fraction) for record O=c1cc(-c2ccccc2)oc2cc(O)cc(O)c12
0.00161

###

Settings: in acetone, 308.2 K
Measured Metric: solubility (mole fraction)
One number for each entry.

Query solubility (mole fraction) for O=c1cc(-c2ccccc2)oc2cc(O)cc(O)c12
0.00176

###

Settings: in ethyl acetate, 333.2 K
Measured Metric: solubility (mole fraction)

Supply measured solubility (mole fraction) of O=c1cc(-c2ccccc2)oc2cc(O)cc(O)c12 in your reply.
0.00176

###

Details: in n-hexane, 318.2 K
Measured Metric: solubility (mole fraction)
Numbers only.

Provide only the value of recorded solubility (mole fraction) for O=c1cc(-c2ccccc2)oc2cc(O)cc(O)c12
1.08e-06

###

Details: in ethanol, 308.2 K
Measured Metric: solubility (mole fraction)
One number for each entry.

Name the recorded solubility (mole fraction) of the compound listed here: O=c1cc(-c2ccccc2)oc2cc(O)cc(O)c12
0.000709

###

Conditions: in ethyl acetate, 328.2 K
Measured Metric: solubility (mole fraction)

Please look at this molecule and report its solubility (mole fraction): O=c1cc(-c2ccccc2)oc2cc(O)cc(O)c12
0.00163

###

Conditions: in ethanol, 318.2 K
Measured Metric: solubility (mole fraction)
Numbers only.

Hello, please tell me recorded solubility (mole fraction) for this one: O=c1cc(-c2ccccc2)oc2cc(O)cc(O)c12
0.000903
